# ASSAY: MultiTox-Fluor Cytotoxicity Assay - LYMP1-003 - Dead Cells (AID 961);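 also: cells exposed to compound for 16 h at 37 °C; nearly all actives have a fitted effect of over 70% in size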
# EXPERIMENTAL SETUP: LYMP1-003 lymphoblastoid cells, dead-cell protease fluorescence; series mostly up to 92.2 µM
The source made the active and inactive calls. Calls follow the shape of the dose curve; as a rule, active = well fitted cell-killing curve with a large enough effect; inconclusive = small, poorly fitted or top-dose-only effect, or effect the other way; inactive = flat fitted curve, though single readings scatter.
Allowed answers: t (active), f (inactive)

• O=[N+]([O-])c1cc([N+](=O)[O-])c2ccc(S(=O)(=O)O)cc2c1O = f
• CN(C)c1ccc(C2(c3ccc(N(C)C)cc3)OC(=O)c3cc(N(C)C)ccc32)cc1 = f
• O=C(/C=C/c1ccc(O)c(O)c1)OC1C[C@](O)(C(=O)O)C[C@@H](O)[C@H]1O (some centres undefined) = f
• CN1[C@H]2CC(OC(=O)[C@H](CO)c3ccccc3)C[C@H]1[C@H]1O[C@H]12 (some centres undefined) = f
• c1ccc2c(c1)-c1cccc3c1c-2cc1ccccc13 = f
• O=Cc1ccc(Cl)c(Cl)c1 = f
• CNc1ccc(O)cc1 = t
• O=C(OCC(COC(=O)c1ccccc1)(COC(=O)c1ccccc1)COC(=O)c1ccccc1)c1ccccc1 = f
• CCCCCC/C(C=O)=C\c1ccccc1 = f
• CO[C@H]1/C=C/O[C@@]2(C)Oc3c(C)c(O)c4c(O)c(c5c(c4c3C2=O)NC2(CCN(CC(C)C)CC2)N=5)=NC(=O)/C(C)=C\C=C\[C@H](C)[C@H](O)[C@@H](C)[C@@H](O)[C@@H](C)[C@H](OC(C)=O)[C@@H]1C = f

As a next step, examine the compound that follows.
q: What did this assay record as the result for `CC(=O)Nc1ccc(C(=O)CCl)cc1` ?
a: t

====

# ASSAY: Cell Viability - Hek293 (AID 427);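 also: cells exposed to compound for 40 hours at 37 °C before reading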
# EXPERIMENTAL SETUP: qHTS
Records with an inconclusive call do not appear. Active and inactive are the calls of the source.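 How the source made its calls: active means compounds whose dose-response curve shows a full or clear partial loss of cell viability, called from curve shape rather than a numeric limit; inconclusive means weak partial curves or an effect only at the top dose; inactive means no dose-dependent loss of viability.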
Pick one and only one: 1 (active), -1 (inactive)

Study these solved cases before continuing.
* O=C(/C=C/c1ccc(O)c(O)c1)OC1C[C@](O)(C(=O)O)C[C@@H](O)[C@H]1O (some centres undefined) | -1
* O=Cc1ccc(Cl)c(Cl)c1 | -1
* Nc1ccc2cc3ccccc3cc2c1 | -1

q: Entry `CCCCCCCC[N+](CCCCCCCC)(CCCCCCCC)CCCCCCCC` : call = ?
a: 1

q: Would you mind telling me which call this test gave `CC(=O)Nc1ccc(C(=O)CCl)cc1` ?
a: 1

q: How was `CNc1ccc(O)cc1` classified in this test?
a: 1

q: Record lookup: outcome of this test for `CN(C)c1ccc(C2(c3ccc(N(C)C)cc3)OC(=O)c3cc(N(C)C)ccc32)cc1` ?
a: -1

q: Assay outcome for `ClC1=C(Cl)C(Cl)(Cl)C(Cl)=C1Cl` : what was it?
a: -1

q: // outcome(item) with item = `C=CC(=O)OCC(CO)(COC(=O)C=C)COC(=O)C=C`
a: 1

q: Which result was noted for this molecule in the test: `Cc1cc(O)c(C(C)(C)C)cc1Sc1cc(C(C)(C)C)c(O)cc1C`
a: 1

q: Give the logged outcome of this assay for the following molecule: CCC(C)Nc1ccc(NC(C)CC)cc1 (centres undefined)
a: 1

q: Write down the call the test reported for this molecule. Item: `Cc1cc(Nc2ccc(O)cc2)ccc1N`
a: 1

q: Please indicate how the test categorized `O=C1OC2(c3cc(Br)c(O)c(Br)c3Oc3c2cc(Br)c(O)c3Br)c2c(Cl)c(Cl)c(Cl)c(Cl)c21` .
a: -1

q: Assay outcome for c1cc(OCC2CO2)cc(OCC2CO2)c1 (centres undefined) : what was it?
a: 1
